system: GM1 production in Jurkat cells; test: cells; type: cell-based; settings: Homo sapiens, Jurkat, 72 h
recorded endpoint: pIC50
Value format note: pIC50 is -log10 of concentration (mol/L); just state the number.

Asked: So what's the measured pIC50 for this one? CC1(C)COc2cc(-c3cccc(F)c3)c(F)cc2C1NC(=O)O[C@@H]1CN2CCC1CC2 (stereo partly shown)
Given back: 8.74

Asked: So what's the measured pIC50 for this one? Cc1ccc(-c2ccc3c(c2)OCC(C)(C)C3NC(=O)O[C@@H]2CN3CCC2CC3)c2cccnc12 (stereo partly shown)
Given back: 7.89

Asked: So what's the measured pIC50 for this one? O=C(NC1CCOc2cc(-c3coc4ccccc34)ccc21)O[C@@H]1CN2CCC1CC2 (stereo partly shown)
Given back: 10.70

Asked: So what's the measured pIC50 for this one? O=C(NC1CCOc2ccc(-c3cccc(Cl)c3)cc21)O[C@@H]1CN2CCC1CC2 (stereo partly shown)
Given back: 6.66
